Data provenance is patent US8513295B2.

testedTarget: WNV protease (UniProt Q9Q6P4)
Construct: "expression and purification of WNV (EG101 strain) were similar to those described elsewhere by Mueller et al."
Sequence (Q9Q6P4 1506-2124): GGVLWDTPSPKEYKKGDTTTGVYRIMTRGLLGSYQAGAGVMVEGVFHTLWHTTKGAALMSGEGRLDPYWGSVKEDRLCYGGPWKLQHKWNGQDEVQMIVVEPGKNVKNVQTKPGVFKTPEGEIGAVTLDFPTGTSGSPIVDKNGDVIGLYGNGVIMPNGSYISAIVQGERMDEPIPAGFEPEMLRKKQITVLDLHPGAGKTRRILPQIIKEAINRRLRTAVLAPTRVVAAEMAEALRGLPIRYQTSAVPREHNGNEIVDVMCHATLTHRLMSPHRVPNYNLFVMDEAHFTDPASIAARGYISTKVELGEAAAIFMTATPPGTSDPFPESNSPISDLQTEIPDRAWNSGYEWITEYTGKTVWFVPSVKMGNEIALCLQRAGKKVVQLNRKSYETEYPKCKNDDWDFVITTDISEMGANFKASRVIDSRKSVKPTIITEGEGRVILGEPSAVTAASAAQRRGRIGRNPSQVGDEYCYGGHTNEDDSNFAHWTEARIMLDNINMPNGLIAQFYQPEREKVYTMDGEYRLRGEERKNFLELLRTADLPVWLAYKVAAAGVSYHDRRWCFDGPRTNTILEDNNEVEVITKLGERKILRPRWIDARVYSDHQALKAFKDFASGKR
measurementNotes: in vitro WNV protease assay (Example 2)
Type: biochemical, West Nile Virus (EG101 strain)
appliedConditions: Protease Inhibition Activity, Table 1; read-out: IC50 (μM) WNVpro
reportedEndpoint: IC50
Field: value (include unit after the number)

The reported value for O=C(Nc1ccc(Oc2ccccc2)cc1)C(C(=O)OCc1ccccc1)n1sc2ccccc2c1=O (stereo not drawn) in terms of IC50 is 9 µM

Given item O=C(Nc1ccc(Oc2ccccc2)cc1)C(Cc1ccccc1)n1sc2ccccc2c1=O (stereo not drawn) , the value recorded as its IC50 is 6.6 µM

IC50 recorded for this compound, O=C(CC(C(=O)Nc1cccc(Oc2ccccc2)c1)N1Cc2ccccc2C1=O)OCc1ccccc1 (stereo not drawn) , is 13 µM

* * *

testedTarget: WNV protease (UniProt Q9Q6P4)
Construct: "expression and purification of WNV (EG101 strain) were similar to those described elsewhere by Mueller et al."
measurementNotes: in vitro WNV protease assay (Example 2)
Format: biochemical, West Nile Virus (EG101 strain)
appliedConditions: Protease Inhibition Activity, Table 1; read-out: IC50 (μM) WNVpro
reportedEndpoint: IC50 (µM)
Dear colleague, please return just the value in µM, with no unit written.

Summary for this compound, O=C(Nc1ccccc1Oc1ccccc1)C(Cc1ccccc1)n1sc2ccccc2c1=O (centres unmarked) : IC50 is 6

Noted for O=C(Nc1cccc(Oc2ccccc2)c1)C(Cc1ccccc1)N1Cc2ccccc2C1=O (centres unmarked) : its IC50 reads 11.1

compound O=c1c2ccccc2sn1C(Cc1ccccc1)c1nnc(-c2cccc(F)c2)o1 (centres unmarked) , IC50 observed: 9.8

Per the records, this compound ( O=C(CNC(=O)Nc1ccc(Oc2ccccc2)cc1)NCc1ccccc1 ) has IC50 equal to 26.1

GET /value?item= O=c1c2ccccc2sn1C(Cc1ccccc1)c1nnc(-c2cccc(Cl)c2)o1 (centres unmarked) &field=IC50 returns 7.6

Reported IC50 for O=C(CCC(C(=O)Nc1ccc(Oc2ccccc2)cc1)N1Cc2ccccc2C1=O)OCc1ccccc1 (centres unmarked) was 15.5

IC50 reported for this compound O=C(CCC(C(=O)Nc1cccc(Oc2ccccc2)c1)N1Cc2ccccc2C1=O)OCc1ccccc1 (centres unmarked) : 22.7

So, O=C(CNC(=O)Nc1ccc(Oc2ccccc2)cc1)Nc1ccccc1 ? Its IC50 was 31.2

* * *

testedTarget: WNV protease (UniProt Q9Q6P4)
Construct: "expression and purification of WNV (EG101 strain) were similar to those described elsewhere by Mueller et al."
Sequence (Q9Q6P4 1506-2124): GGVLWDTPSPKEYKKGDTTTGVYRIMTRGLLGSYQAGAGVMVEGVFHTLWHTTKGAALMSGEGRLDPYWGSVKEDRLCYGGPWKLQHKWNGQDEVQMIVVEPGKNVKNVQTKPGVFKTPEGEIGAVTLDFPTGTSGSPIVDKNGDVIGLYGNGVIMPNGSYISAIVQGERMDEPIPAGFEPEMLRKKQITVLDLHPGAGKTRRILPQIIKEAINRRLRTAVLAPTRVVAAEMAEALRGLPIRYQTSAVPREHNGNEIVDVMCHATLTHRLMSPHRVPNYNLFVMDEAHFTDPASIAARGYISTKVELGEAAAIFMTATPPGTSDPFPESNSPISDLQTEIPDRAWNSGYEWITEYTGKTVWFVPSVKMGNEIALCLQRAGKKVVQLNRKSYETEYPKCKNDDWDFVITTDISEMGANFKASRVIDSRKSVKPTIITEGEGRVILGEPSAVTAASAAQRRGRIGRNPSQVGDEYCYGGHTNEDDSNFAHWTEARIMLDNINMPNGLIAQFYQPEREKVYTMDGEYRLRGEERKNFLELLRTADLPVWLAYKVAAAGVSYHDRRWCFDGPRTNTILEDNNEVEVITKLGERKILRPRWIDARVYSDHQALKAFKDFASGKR
measurementNotes: in vitro WNV protease assay (Example 2)
Type: biochemical, West Nile Virus (EG101 strain)
appliedConditions: Protease Inhibition Activity, Table 1; read-out: IC50 (μM) WNVpro
The label rule met is reserved for IC50 strictly under 20 µM; rule not met covers values equal to or above it.

stdin: Strictly below 20 µM in IC50? O=C(CNC(=O)Nc1cccc(Oc2ccccc2)c1)Nc1ccccc1
stdout: rule not met

stdin: Criterion: IC50 strictly below 20 µM. Is it met by O=C(Nc1cccc(Oc2ccccc2)c1)C(Cc1ccccc1)n1sc2ccccc2c1=O (stereo not drawn) ?
stdout: rule met

stdin: Given O=C(CNC(=O)Nc1cccc(Oc2ccccc2)c1)NCc1ccccc1 , is recorded IC50 strictly lower than 20 µM?
stdout: rule not met

stdin: Does the reported IC50 of O=C(CCCCc1ccccc1)Nc1cccc(Oc2ccccc2)c1 stay below 20 µM?
stdout: rule not met

stdin: Given O=C(CSc1nc(-c2ccccc2)no1)Nc1nc2ccccc2[nH]1 , is recorded IC50 strictly lower than 20 µM?
stdout: rule met

stdin: Would you kindly verify if IC50 of COc1ccc(Cc2nnc(C(Cc3ccccc3)n3sc4ccccc4c3=O)o2)cc1 (stereo not drawn) is strictly less than 20 µM?
stdout: rule not met

stdin: Strictly below 20 µM: is that where IC50 of O=C(CSc1nc2ccccc2s1)Nc1nc2ccccc2s1 sits?
stdout: rule not met

stdin: Hi there! Is IC50 for O=c1c2ccccc2sn1C(Cc1ccccc1)c1nnc(Cc2ccccc2)o1 (stereo not drawn) below 20 µM, do you know?
stdout: rule met

* * *

Hi! I'm sharing some IC50 results obtained with DENV protease (Dengue virus type 2, UniProt P14340).
Sequence (P14340 1394-1440): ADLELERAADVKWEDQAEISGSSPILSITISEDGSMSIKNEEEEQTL
Sequence (P14340 1476-1653): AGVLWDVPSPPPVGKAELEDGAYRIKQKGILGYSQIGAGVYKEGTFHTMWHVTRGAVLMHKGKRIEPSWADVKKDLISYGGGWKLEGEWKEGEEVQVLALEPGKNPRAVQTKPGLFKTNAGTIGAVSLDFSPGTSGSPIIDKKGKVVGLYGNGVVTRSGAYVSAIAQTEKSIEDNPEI
Numbers only; they are read as µM.

The compound O=c1c2ccccc2sn1C(Cc1ccccc1)c1nnc(Cc2ccccc2)o1 (stereo not drawn) showed IC50 equal to 9.6

Item: O=c1c2ccccc2sn1C(Cc1ccccc1)c1nnc(-c2cccc(Cl)c2)o1 (stereo not drawn) | IC50: 10.6

Sample O=C(CSc1nc2ccccc2c(=O)[nH]1)Nc1cccc(Oc2ccccc2)c1 ; IC50 observed: 89

# compound O=C(CCC(C(=O)Nc1ccc(Oc2ccccc2)cc1)N1Cc2ccccc2C1=O)OCc1ccccc1 (stereo not drawn) ; its IC50 = 45

Given item O=C1c2ccccc2CN1C(Cc1ccccc1)c1nnc(-c2cccc(Cl)c2)o1 (stereo not drawn) , the value recorded as its IC50 is 12.2

// IC50 lookup, compound = O=c1c2ccccc2sn1C(Cc1ccccc1)c1nnc(-c2cccc(F)c2)o1 (stereo not drawn) , result: 11.4
